Experimental target: T1, EsCas13d, nuclease-dead (Eubacterium siraeum, UniProt B0MS50, R295A;H300A;R849A;H854A)
T1 sequence: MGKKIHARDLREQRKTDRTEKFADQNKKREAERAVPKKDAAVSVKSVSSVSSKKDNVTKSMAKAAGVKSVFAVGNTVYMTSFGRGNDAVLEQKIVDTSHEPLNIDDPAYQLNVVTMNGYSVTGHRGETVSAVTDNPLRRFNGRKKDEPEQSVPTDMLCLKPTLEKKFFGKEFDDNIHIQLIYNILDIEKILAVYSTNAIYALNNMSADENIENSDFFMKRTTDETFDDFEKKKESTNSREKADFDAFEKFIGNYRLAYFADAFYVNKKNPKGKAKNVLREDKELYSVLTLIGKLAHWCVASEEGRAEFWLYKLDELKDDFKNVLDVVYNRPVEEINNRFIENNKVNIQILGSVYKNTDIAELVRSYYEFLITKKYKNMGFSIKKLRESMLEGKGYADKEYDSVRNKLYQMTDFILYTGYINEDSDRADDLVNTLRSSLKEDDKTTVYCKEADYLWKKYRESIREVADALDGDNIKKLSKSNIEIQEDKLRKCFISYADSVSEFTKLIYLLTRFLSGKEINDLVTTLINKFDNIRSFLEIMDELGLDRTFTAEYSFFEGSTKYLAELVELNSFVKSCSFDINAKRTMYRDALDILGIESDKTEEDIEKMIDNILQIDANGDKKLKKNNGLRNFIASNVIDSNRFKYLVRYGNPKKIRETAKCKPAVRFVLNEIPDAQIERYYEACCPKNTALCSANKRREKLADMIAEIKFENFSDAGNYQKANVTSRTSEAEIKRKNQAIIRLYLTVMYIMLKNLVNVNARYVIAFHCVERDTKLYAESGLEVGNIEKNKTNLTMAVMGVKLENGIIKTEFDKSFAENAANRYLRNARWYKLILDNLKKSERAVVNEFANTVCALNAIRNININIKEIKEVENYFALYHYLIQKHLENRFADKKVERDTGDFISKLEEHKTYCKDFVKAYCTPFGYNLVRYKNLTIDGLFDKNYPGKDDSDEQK
Assay explanation: crRNA (strand 1, pre-loaded); Mg2+; 40 mM Tris-HCl pH 7.5, 150 mM NaCl, 6 mM MgCl2, 1 mM DTT, 0.1% Tween-20, 0.2 mg/ml BSA; 25 C; 10 min per concentration, then washed
Test settings: tags: His6-TwinStrep-SUMO cleaved; N-terminal SNAP kept (SNAP-Surface 488); label: 3' end held by stalled T7 RNA polymerase
Parameter measured: pKd
Numbers only, as −log10 of the molar value.

Worked set:
target 2 MT 5'PFS UGG 3'PFS AGU (mixed) RNA 1: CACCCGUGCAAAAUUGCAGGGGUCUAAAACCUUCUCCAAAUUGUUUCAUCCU RNA 2: GGGAAUGGAUCCACAUCUACGAAUUCUGGAGGAUGAAACAAUUUGGAGAAGAGUAGAUCGGAAGAGCACACGU	8.10
target 1 G15C,G17C (mixed) RNA 1: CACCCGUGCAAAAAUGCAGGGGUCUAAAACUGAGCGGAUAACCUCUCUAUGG RNA 2: GGGAAUGGAUCCACAUCUACGAAUUCGUACCAUACACAGGUUAUCCGCUCACCGAGAUCGGAAGAGCACACGU	7.30

Let us move to another entry and its pKd.
Item target 1 insC 3' of 18,insU 3' of 9 (mixed) RNA 1: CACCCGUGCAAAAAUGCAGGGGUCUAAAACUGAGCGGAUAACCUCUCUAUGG RNA 2: GGGAAUGGAUCCACAUCUACGAAUUCGUACCAUACGAGAGGUUAUUCCGCUCACCGAGAUCGGAAGAGCACACGU has what recorded pKd?
7.29
